These data points were gathered from patent US20250000834A1.

# Assay target: hGPR37L1 (Homo sapiens, UniProt O60883)
# Sequence (O60883 26-481): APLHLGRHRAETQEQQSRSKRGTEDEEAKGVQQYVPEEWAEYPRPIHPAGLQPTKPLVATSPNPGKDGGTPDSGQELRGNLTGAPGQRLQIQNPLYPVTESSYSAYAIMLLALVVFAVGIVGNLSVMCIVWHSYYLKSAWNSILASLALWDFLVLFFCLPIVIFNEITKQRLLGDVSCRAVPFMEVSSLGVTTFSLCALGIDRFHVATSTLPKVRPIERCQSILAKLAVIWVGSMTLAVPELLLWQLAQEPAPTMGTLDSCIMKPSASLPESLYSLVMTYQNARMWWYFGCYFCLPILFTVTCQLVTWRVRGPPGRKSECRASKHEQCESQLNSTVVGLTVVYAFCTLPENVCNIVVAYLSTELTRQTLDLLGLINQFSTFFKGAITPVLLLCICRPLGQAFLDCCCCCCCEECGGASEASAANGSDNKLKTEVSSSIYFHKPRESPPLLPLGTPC
# Run description: Lipid-coated bead pull-down assay with hGPR37L1-expressing cells
# Assay type: binding
# Parameters: expressed in transfected cells; host or cells: HEK293 Flp-In cells
# Measurement setup: Western blot
Outcome measure: GPR37L1 binding in lipid-coated bead pull-down extracts

Molecule: CC/C=C\C/C=C\C/C=C\C/C=C\C/C=C\C/C=C\CCC(=O)O [DHA, reference compound]
Result: not binding
//
Molecule: CC/C=C\C[C@H](O)[C@H](O)/C=C/C=C/C=C\C=C\[C@@H](O)C/C=C\CCC(=O)O
Result: not binding
//
Molecule: CC/C=C\C[C@H](O)/C=C/C=C\C=C\C=C\[C@@H](O)[C@@H](O)C/C=C\CCC(=O)O
Result: not binding
